Assay overview: qHTS of pediatric cancer cell lines to identify multiple opportunities for drug repurposing: Primary screen for NB-EBc1 cells (AID 1347095)
Condition description: NB-EBc1 neuroblastoma viability, CellTiter-Glo luminescence, 48 h; series mostly up to 46 µM
Inconclusive results are not listed. Active and inactive are the calls of the source. Calls follow the shape of the dose curve; as a rule, active = well fitted cell-killing curve with a large enough effect; inconclusive = small, poorly fitted or top-dose-only effect; inactive = no such curve, though single readings can be large or run the other way.
API: response.call in True = active, False = inactive

Some entries whose results are on file:
| Compound | Category |
| --- | --- |
| COc1cc(NC(=O)c2ccc(-c3ccc(Cl)cc3)o2)cc(OC)c1 | False |
| O=C(O)Cc1cccc2ccccc12 | False |

Can you look up the reported call for CC(C)[C@H](CO)Nc1nc(Nc2ccc(C(=O)O)c(Cl)c2)c2ncn(C(C)C)c2n1 for me?
True

Called result for O=c1c(O)c(-c2ccc(O)cc2)oc2cc(O)cc(O)c12
True

Dear all, I need the recorded test outcome for CCN1CCC[C@H]1CNC(=O)c1cc(S(N)(=O)=O)ccc1OC , thank you.
False

Check the results log: what was the call for COc1ccc(-c2coc3cc(O)cc(O)c3c2=O)cc1 ?
False

Could you please tell me the result logged for CC(=O)O[C@]1(C(C)=O)CC[C@@H]2[C@@H]3C[C@H](C)C4=CC(=O)CC[C@]4(C)[C@H]3CC[C@@]21C in this assay?
False
